B1: Histone H1t, residues 44 to 112; numbered along this chain, P22492 (parent)
chain: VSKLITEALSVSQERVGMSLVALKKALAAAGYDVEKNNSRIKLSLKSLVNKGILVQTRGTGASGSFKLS

Variants of: B1
Assay: abundance fitness (aPCA) (normalised: wild type 0, dead -1); higher = more abundant; growth selection in yeast, the domain comes from the species named
Conditions: Homo sapiens
Criterion: abundance fitness meeting or surpassing -0.3. Met: label 1. Not met: label 0.

Assess whether reported abundance fitness for G31V sits at -0.3 or higher.
label 1

Assess whether reported abundance fitness for A30H sits at -0.3 or higher.
label 0

Assess whether reported abundance fitness for K67Y sits at -0.3 or higher.
label 1

Assess whether reported abundance fitness for G61T sits at -0.3 or higher.
label 1

Assess whether reported abundance fitness for T57C sits at -0.3 or higher.
label 1

Assess whether reported abundance fitness for S47W sits at -0.3 or higher.
label 1

Assess whether reported abundance fitness for L48P sits at -0.3 or higher.
label 0

Assess whether reported abundance fitness for Y32Q sits at -0.3 or higher.
label 1

Assess whether reported abundance fitness for S39K sits at -0.3 or higher.
label 1

Assess whether reported abundance fitness for L27P sits at -0.3 or higher.
label 0

Assess whether reported abundance fitness for I41C sits at -0.3 or higher.
label 0

Assess whether reported abundance fitness for L54T sits at -0.3 or higher.
label 1

Assess whether reported abundance fitness for G61V sits at -0.3 or higher.
label 1

Assess whether reported abundance fitness for A30L sits at -0.3 or higher.
label 1

Assess whether reported abundance fitness for S39G sits at -0.3 or higher.
label 1

Assess whether reported abundance fitness for K36E sits at -0.3 or higher.
label 0

Assess whether reported abundance fitness for A29Q sits at -0.3 or higher.
label 1

Assess whether reported abundance fitness for N50L sits at -0.3 or higher.
label 0

Assess whether reported abundance fitness for A26S sits at -0.3 or higher.
label 1

Assess whether reported abundance fitness for T57W sits at -0.3 or higher.
label 1

Assess whether reported abundance fitness for G64E sits at -0.3 or higher.
label 1

Assess whether reported abundance fitness for I41T sits at -0.3 or higher.
label 0
